- assayExplanation: solubility
- Assay type: physicochemical
- appliedConditions: dmso-water 5:95, organic solvent or mixture; read-out: solubility in dimethylsulfoxide-water (5:95)
Counter-ions that a name gives are not always drawn.
property: solubility (µg/mL)
Reply with just the number (in µg/mL).

If you can, please state the reported solubility value of C/C=C/C=C/c1cc2cc3c(c(O)c2c(=O)[nH]1)C1(CC3)C(=O)c2c(O)c3c(c(O)c2C1=O)C(=O)C(OC)=CC3=O (stereo not shown) [KFMA, potassium salt of fredericamycin A] . 1500

* * *

- assayExplanation: solubility
- Format: physicochemical
- appliedConditions: water, hand shaking 1 minute, vortexing 3 minutes; read-out: solubility in water
Structures can show the parent of a compound that is named as a salt.
property: solubility

If you can, please state the reported solubility value of C/C=C/C=C/c1cc2cc3c(c(O)c2c(=O)[nH]1)C1(CC3)C(=O)c2c(O)c3c(c(O)c2C1=O)C(=O)C(OC)=CC3=O (stereo not shown) [KFMA, potassium salt of fredericamycin A] . ~1 mg/mL

* * *

- assayExplanation: solubility
- Type: physicochemical
- appliedConditions: water, hand shake and sonication (15 minutes)
Where a name gives a salt, the structure may show the parent alone.
property: solubility (µg/mL)
Reply with just the number (in µg/mL).

If you can, please state the reported solubility value of C/C=C/C=C/c1cc2cc3c(c(O)c2c(=O)[nH]1)C1(CC3)C(=O)c2c(O)c3c(c(O)c2C1=O)C(=O)C(OC)=CC3=O (stereo not shown) [Na-FMA, sodium salt of fredericamycin A] . 500

Each recorded value in this set is attributed to patent US4673678A.
